pKi: −log10 of the molar value.
# human muscarinic receptors (M3) (Homo sapiens, UniProt P20309): pKi values follow
# Sequence (P20309 whole entry): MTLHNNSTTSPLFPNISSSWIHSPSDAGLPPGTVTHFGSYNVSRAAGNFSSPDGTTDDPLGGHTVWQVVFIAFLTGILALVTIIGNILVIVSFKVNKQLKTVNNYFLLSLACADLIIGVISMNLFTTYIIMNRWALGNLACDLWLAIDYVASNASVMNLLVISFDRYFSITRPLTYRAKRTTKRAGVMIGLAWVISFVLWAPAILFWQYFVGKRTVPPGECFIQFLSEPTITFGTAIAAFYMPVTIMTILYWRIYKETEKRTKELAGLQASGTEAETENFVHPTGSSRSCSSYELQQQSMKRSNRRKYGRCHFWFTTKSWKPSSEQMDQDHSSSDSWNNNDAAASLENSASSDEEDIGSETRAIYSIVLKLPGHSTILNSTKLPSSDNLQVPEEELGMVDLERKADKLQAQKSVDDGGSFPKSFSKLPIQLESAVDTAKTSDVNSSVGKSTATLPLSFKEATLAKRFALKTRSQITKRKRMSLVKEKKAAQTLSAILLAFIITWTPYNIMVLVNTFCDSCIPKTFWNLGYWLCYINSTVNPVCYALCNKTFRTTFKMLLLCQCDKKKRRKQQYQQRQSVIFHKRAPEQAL

Give its pKi value. Item: CN(CCCOc1ccccc1)C1C2CCC1C(OC(=O)Nc1ccccc1-c1ccccc1)C2 (single isomer, unassigned) [Example 9]
< 8.00

Proceed to C[N+](C)(C)C1C2CCC1C(OC(=O)Nc1ccccc1-c1ccccc1)C2 (racemic)
8.00 to 9.00

Proceed to CN(C)C1C2CCC1C(OC(=O)Nc1ccccc1-c1ccccc1)C2 (single isomer, unassigned) [Example 2]
> 9.00

Proceed to CN(CCCOc1ccccc1)C1C2CCC1C(OC(=O)Nc1ccccc1-c1ccccc1)C2 (single isomer, unassigned) [Example 10]
< 8.00

Proceed to C[N+](C)(CCCOc1ccccc1)C1C2CCC1C(OC(=O)Nc1ccccc1-c1ccccc1)C2 (single isomer, unassigned)
> 9.00

Proceed to CN(C)C1C2CCC1C(OC(=O)Nc1ccccc1-c1ccccc1)C2 (single isomer, unassigned) [Example 3]
8.00 to 9.00
